Parameter pIC50: see the listing below.
target: HLA-A*02:02; assay: IEDB peptide-MHC binding, purified MHC/competitive/radioactivity; bounds were set here for any values at or beyond the usual limits of such assays; details: source organism: Influenza A virus
Bear in mind: pIC50 is minus log10 of a mol/L concentration; give just that figure.

Some solved cases for reference:
In [3]: df
Out[3]:
   sequence_entry  reported_metric  obs_value
0       FVETLARSI            pIC50       6.42
1       CAAMDDFQL            pIC50       6.00
2      NLFEKFFPSS            pIC50       6.38
3        YLIRALTL            pIC50       6.67
4        NLYNIRNL            pIC50       5.88
5      GILGFVFTLT            pIC50       6.02

(Q) Fill blank: measured pIC50 of the sequence GTSGVESAV is ____.
(A) 5.96

(Q) Fill blank: measured pIC50 of the sequence CLINDPWVL is ____.
(A) 6.51

(Q) Fill blank: measured pIC50 of the sequence RLNKRSYLI is ____.
(A) 7.64

(Q) Fill blank: measured pIC50 of the sequence WSYNAELLVA is ____.
(A) 6.62

(Q) Fill blank: measured pIC50 of the sequence RMGAVTTEV is ____.
(A) 7.05

(Q) Fill blank: measured pIC50 of the sequence FVFTLTVPS is ____.
(A) 6.40

(Q) Fill blank: measured pIC50 of the sequence VNNAVVMPA is ____.
(A) 6.64

(Q) Fill blank: measured pIC50 of the sequence FQVDCFLWH is ____.
(A) 6.67

(Q) Fill blank: measured pIC50 of the sequence WISFAISCFL is ____.
(A) 6.64

(Q) Fill blank: measured pIC50 of the sequence SAFDERRNKYL is ____.
(A) 5.96

(Q) Fill blank: measured pIC50 of the sequence QAIMDKNIIL is ____.
(A) 6.03

(Q) Fill blank: measured pIC50 of the sequence RLTILGKDA is ____.
(A) 5.81

(Q) Fill blank: measured pIC50 of the sequence NVMGMIGV is ____.
(A) 5.70

(Q) Fill blank: measured pIC50 of the sequence MQIRGFVYFV is ____.
(A) 7.72

(Q) Fill blank: measured pIC50 of the sequence MQALQLLLEV is ____.
(A) 6.83

---

target: HLA-A*02:06; assay: IEDB peptide-MHC binding, purified MHC/competitive/radioactivity; bounds were set here for any values at or beyond the usual limits of such assays; conditions: source organism: Vaccinia virus WR
// assign True if IC50 falls strictly below 2000 nM, else False (ties count as False)

>>> print(df.to_string())
   sequence_entry  answer_label
0      YVIPDELIDV          True
1       YIWIKNLET          True
2       STVDVRNIV          True

(Q) Hi there! Is IC50 for VTDKTAYIGT below 2000 nM, do you know?
(A) True

(Q) Hi there! Is IC50 for EATFIDVHI below 2000 nM, do you know?
(A) False

(Q) Hi there! Is IC50 for SLIYYQNEVT below 2000 nM, do you know?
(A) False

(Q) Hi there! Is IC50 for ETIQKDINIT below 2000 nM, do you know?
(A) True

(Q) Hi there! Is IC50 for VQLSNNKYVL below 2000 nM, do you know?
(A) True

(Q) Hi there! Is IC50 for TMSIYIAVA below 2000 nM, do you know?
(A) True

(Q) Hi there! Is IC50 for STISWMMKL below 2000 nM, do you know?
(A) True

(Q) Hi there! Is IC50 for GIADIRDKYM below 2000 nM, do you know?
(A) True

(Q) Hi there! Is IC50 for YIMRVMANNV below 2000 nM, do you know?
(A) True

(Q) Hi there! Is IC50 for CAVNTPVSM below 2000 nM, do you know?
(A) True

Data origin, for the record: the Immune Epitope Database (IEDB)
